Data credit: the supplement of paper PMC10567573

B1: FCHSD1 (parent)
chain: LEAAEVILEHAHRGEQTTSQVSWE

- Variants of: B1
- Experimental Details: protein stability index of a GFP-peptide fusion (GPS, HEK-293T) (PSI 1-6); higher = more stable;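 further: lentivirally expressed fusions sorted by FACS into six bins by GFP to DsRed ratio, PSI derived from sequencing read proportions per bin multiplied by bin number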
- Condition Set: c terminus: a fixed tail appended
Each entry below lists one item and its recorded protein stability index value.
Please reply with the number alone, leaving off any unit.

The examples below pair each entry with its known result.
Lab book: protein stability index of `G14T` noted as 4.21

Lab book: protein stability index of `I7S` noted as 4.92

New cases:
Lab book: protein stability index of `V6A` noted as 4.9
